target: human adenosine A2B receptor (Homo sapiens (Human)); test: Adenosine A2B Receptor Cyclic AMP GS Assay; format: cell-based; conditions: HEK-293 cells, agonist NECA at 12 nM, cAMP accumulation; read-out: A2B—cAMP_EC50
pEC50: −log10 of the molar value.
Exercise: state measured pEC50 for each of the compounds provided.

For CCn1nccc1-c1c(-c2cccc(C#N)c2)nc(N)c2nn(Cc3cccc(C)n3)cc12 [Example 11] the compound record lists pEC50 as 7.00 to 8.00

For N#Cc1cccc(-c2nc(N)c3nn(Cc4ccccn4)nc3c2-c2ccncn2)c1 [Example 16] the compound record lists pEC50 as ≥ 8.00

For Cc1ncoc1-c1c(-c2cccc(C#N)c2)nc(N)c2nn(C(C)c3ccccn3)nc12 (centres unmarked) [Example 46] the compound record lists pEC50 as ≥ 8.00

For Cc1cccc(Cn2nc3c(N)nc(-c4cccc(C#N)c4)c(-c4ccc(=O)n(C)c4)c3n2)n1 [Example 27] the compound record lists pEC50 as 7.00 to 8.00

For Cc1cccc(Cn2nc3c(N)nc(-c4cccc(C#N)c4)c(-c4ccncc4)c3n2)n1 [Example 25] the compound record lists pEC50 as ≥ 8.00

For N#Cc1cccc(-c2nc(N)c3cn(Cc4ncccc4F)nc3c2-c2ccncn2)c1 [Example 3] the compound record lists pEC50 as 7.00 to 8.00

For Cc1ncoc1-c1c(-c2cccc(C#N)c2)nc(N)c2nn(Cc3ccccn3)nc12 [Example 17] the compound record lists pEC50 as ≥ 8.00

For Cc1nc(CO)c(-c2c(-c3cccc(C#N)c3F)nc(N)c3nn(Cc4ccccn4)nc23)o1 [Example 42] the compound record lists pEC50 as 7.00 to 8.00

For Cn1nccc1-c1c(-c2cccc(C#N)c2F)nc(N)c2nn(Cc3ccccn3)nc12 [Example 39] the compound record lists pEC50 as ≥ 8.00

For N#Cc1cccc(-c2nc(N)c3nn(Cc4ncccc4F)nc3c2-c2ccc3nccnc3c2)c1 [Example 37] the compound record lists pEC50 as 7.00 to 8.00

For CCn1nccc1-c1c(-c2cccc(C#N)c2)nc(N)c2nn(Cc3ccccn3)cc12 [Example 9] the compound record lists pEC50 as ≥ 8.00

For N#Cc1cccc(-c2nc(N)c3nn(Cc4ncccc4F)nc3c2-c2ccncc2)c1 [Example 31] the compound record lists pEC50 as ≥ 8.00

For Cc1ncoc1-c1c(-c2cccc(C#N)c2)nc(N)c2nn(Cc3ccccn3)cc12 [Example 12] the compound record lists pEC50 as 7.00 to 8.00

For Cn1cc(-c2c(-c3cccc(C#N)c3)nc(N)c3nn(Cc4ncccc4F)nc23)ccc1=O [Example 32] the compound record lists pEC50 as 7.00 to 8.00

For Cc1cnccc1-c1c(-c2cccc(C#N)c2)nc(N)c2nn(Cc3ccccn3)nc12 [Example 19] the compound record lists pEC50 as ≥ 8.00

For Cn1nccc1-c1c(-c2cccc(C#N)c2)nc(N)c2nn(Cc3ncccc3F)nc12 [Example 35] the compound record lists pEC50 as ≥ 8.00

For CCn1nccc1-c1c(-c2cccc(C#N)c2)nc(N)c2cn(Cc3ccccn3)nc12 [Example 2] the compound record lists pEC50 as ≥ 8.00

* * *

Exercise: state measured pEC50 for each of the compounds provided.
Molecular target: human adenosine A2B receptor (Homo sapiens (Human), UniProt P29275)
Sequence (P29275 whole entry): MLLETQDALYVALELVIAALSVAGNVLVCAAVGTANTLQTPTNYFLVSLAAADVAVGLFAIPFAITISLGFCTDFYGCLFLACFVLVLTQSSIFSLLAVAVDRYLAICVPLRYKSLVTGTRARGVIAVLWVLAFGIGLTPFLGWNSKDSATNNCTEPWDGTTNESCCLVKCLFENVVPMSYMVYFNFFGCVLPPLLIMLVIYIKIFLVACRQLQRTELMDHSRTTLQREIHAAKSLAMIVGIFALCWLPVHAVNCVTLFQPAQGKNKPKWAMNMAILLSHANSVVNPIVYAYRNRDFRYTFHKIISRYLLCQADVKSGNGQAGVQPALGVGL
Experiment: Adenosine A2B Receptor Cyclic AMP GS Assay
Assay type: cell-based
Details: HEK-293 cells, agonist NECA at 12 nM, cAMP accumulation; read-out: A2B—cAMP_EC50
Protocol: Stably transfected HEK-293 cells expressing the human adenosine A2B receptor (Perkin Elmer) were maintained in MEM culture medium with 10% FBS and 100 μg/mL Geneticin (Life Technologies). 18 to 24 hours prior to assay, geneticin was removed from culture. The cisbio cAMP-GS Dynamic kit utilizing the FRET (Fluorescence Resonance Energy Transfer) technology was used to measure cAMP accumulation in the cells. […]
pEC50: −log10 of the molar value.

For N#Cc1cccc(-c2nc(N)c3cn(Cc4ccccn4)nc3c2-c2ccncn2)c1 [Example 1] the compound record lists pEC50 as 7.00 to 8.00

For N#Cc1cccc(-c2nc(N)c3nn(Cc4ccccn4)cc3c2-c2ccncn2)c1 [Example 8] the compound record lists pEC50 as ≥ 8.00

For N#Cc1cccc(-c2nc(N)c3nn(Cc4ccccn4)nc3c2-c2cnco2)c1 [Example 21] the compound record lists pEC50 as ≥ 8.00

For Cc1cccc(Cn2nc3c(N)nc(-c4cccc(C#N)c4)c(-c4ocnc4C)c3n2)n1 [Example 29] the compound record lists pEC50 as ≥ 8.00

For Cc1ncoc1-c1c(-c2cccc(C#N)c2)nc(N)c2nn(Cc3ncccc3F)nc12 [Example 36] the compound record lists pEC50 as ≥ 8.00

For N#Cc1cccc(-c2nc(N)c3nn(Cc4ccccn4)nc3c2-c2ccc3nccnc3c2)c1F [Example 43] the compound record lists pEC50 as 6.00 to 7.00

For CCn1nccc1-c1c(-c2cccc(C#N)c2)nc(N)c2nn(Cc3ncccc3F)nc12 [Example 33] the compound record lists pEC50 as ≥ 8.00

For N#Cc1cccc(-c2nc(N)c3nn(Cc4ncccc4F)nc3c2-c2ccncn2)c1 [Example 30] the compound record lists pEC50 as ≥ 8.00

For Cc1nc(CO)c(-c2c(-c3cccc(C#N)c3)nc(N)c3nn(Cc4ccccn4)nc23)o1 [Example 20] the compound record lists pEC50 as ≥ 8.00

For N#Cc1cccc(-c2nc(N)c3cn(Cc4ccccc4F)nc3c2-c2ccncn2)c1 [Example 7] the compound record lists pEC50 as ≥ 8.00

For CC(C)n1nccc1-c1c(-c2cccc(C#N)c2)nc(N)c2nn(Cc3ncccc3F)nc12 [Example 34] the compound record lists pEC50 as ≥ 8.00

For Cc1ncoc1-c1c(-c2cccc(C#N)c2)nc(N)c2nn(Cc3ccn(C)n3)nc12 [Example 45] the compound record lists pEC50 as ≥ 8.00

For Cc1cccc(Cn2cc3c(-c4ccncn4)c(-c4cccc(C#N)c4)nc(N)c3n2)n1 [Example 10] the compound record lists pEC50 as ≥ 8.00

For Cc1cccc(Cn2cc3c(-c4ocnc4C)c(-c4cccc(C#N)c4)nc(N)c3n2)n1 [Example 13] the compound record lists pEC50 as 7.00 to 8.00

For Cn1ccc(Cn2nc3c(N)nc(-c4cccc(C#N)c4)c(-c4ccncn4)c3n2)n1 [Example 44] the compound record lists pEC50 as ≥ 8.00

For Cc1ncoc1-c1c(-c2cccc(C#N)c2F)nc(N)c2nn(Cc3ccccn3)nc12 [Example 41] the compound record lists pEC50 as ≥ 8.00

For CCn1nccc1-c1c(-c2cccc(C#N)c2)nc(N)c2nn(Cc3ccccn3)nc12 [Example 18] the compound record lists pEC50 as ≥ 8.00

* * *

Target: UniProt:P29275
Test: Adenosine A2B Receptor Cyclic AMP GS Assay
Conditions: HEK-293 cells, agonist NECA at 12 nM, cAMP accumulation; read-out: A2B—cAMP_EC50
Procedure: Stably transfected HEK-293 cells expressing the human adenosine A2B receptor (Perkin Elmer) were maintained in MEM culture medium with 10% FBS and 100 μg/mL Geneticin (Life Technologies). 18 to 24 hours prior to assay, geneticin was removed from culture. The cisbio cAMP-GS Dynamic kit utilizing the FRET (Fluorescence Resonance Energy Transfer) technology was used to measure cAMP accumulation in the cells. […]
Measured Parameter: EC50

For N#Cc1cccc(-c2nc(N)c3nn(Cc4ccccn4)nc3c2-c2ccc3nccnc3c2)c1 the molecule record lists EC50 as 100 to 1000 nM

For Cc1cccc(Cn2nc3c(N)nc(-c4cccc(C#N)c4)c(-c4ccncc4C)c3n2)n1 the molecule record lists EC50 as ≤ 10 nM

For N#Cc1cccc(-c2nc(N)c3cn(Cc4ccccn4)nc3c2-c2ccncc2)c1 the molecule record lists EC50 as ≤ 10 nM

For Cc1ncoc1-c1c(-c2cccc(C#N)c2)nc(N)c2nn(CCc3ccccn3)nc12 the molecule record lists EC50 as 10 to 100 nM

For Cn1ccc(Cn2cc3c(N)nc(-c4cccc(C#N)c4)c(-c4ccncn4)c3n2)n1 the molecule record lists EC50 as 10 to 100 nM

For CCn1nccc1-c1c(-c2cccc(C#N)c2)nc(N)c2nn(Cc3cccc(C)n3)nc12 the molecule record lists EC50 as ≤ 10 nM

For CC(C)n1nccc1-c1c(-c2cccc(C#N)c2F)nc(N)c2nn(Cc3ccccn3)nc12 the molecule record lists EC50 as ≤ 10 nM

For CC(c1ccccn1)n1nc2c(N)nc(-c3cccc(C#N)c3)c(-c3ccncn3)c2n1 (stereo not drawn) the molecule record lists EC50 as 100 to 1000 nM

For Cc1cccc(Cn2nc3c(N)nc(-c4cccc(C#N)c4)c(-c4ccncn4)c3n2)n1 the molecule record lists EC50 as ≤ 10 nM

Sourced from patent US11390624B2
